Tested on: PC-3_[JPC-3] (Lung Adenocarcinoma)
TEST PROTOCOL: combination Emax (second highest fraction inhibited in the dose matrix, 72 h); higher = more inhibition; extreme values may be limits of the assay
ASSAY METRIC: combination Emax
Answers are plain numbers.

Guide cases for combination Emax, answers given:
Read the entry C[C@@H](c1ccc2nccn2c1)n1nnc2ncc(-c3cnn(C)c3)nc21 [Savolitinib] + CC1(C)CCC(CN2CCN(c3ccc(C(=O)NS(=O)(=O)c4ccc(NCC5CCOCC5)c([N+](=O)[O-])c4)c(Oc4cnc5[nH]ccc5c4)c3)CC2)=C(c2ccc(Cl)cc2)C1 [Venetoclax] (first compound max 1 µM, 7x7, partner max 1 µM) and write its reported combination Emax.
0.129

Read the entry CN(CCO)CC[C@H](CSc1ccccc1)Nc1ccc(S(=O)(=O)NC(=O)c2ccc(N3CCC([C@@H](O)c4ccccc4-c4ccc(Cl)cc4)CC3)cc2)cc1S(=O)(=O)C(F)(F)F [AZD4320] + Cn1cnc2c(F)c(Nc3ccc(Br)cc3Cl)c(C(=O)NOCCO)cc21 [Selumetinib] (first compound max 1 µM, 7x7, partner max 3 µM) and write its reported combination Emax.
0.571

--- query ---
Read the entry Cc1c2c(nn1C)CSCc1cc(n(C)n1)CSc1cc(c3ccccc3c1)OCCCc1c(C(=O)O)n(C)c3c-2c(Cl)ccc13 [AZD5991] + CC1(C)CCC(CN2CCN(c3ccc(C(=O)NS(=O)(=O)c4ccc(NCC5CCOCC5)c([N+](=O)[O-])c4)c(Oc4cnc5[nH]ccc5c4)c3)CC2)=C(c2ccc(Cl)cc2)C1 [Venetoclax] (first compound max 1 µM, 7x7, partner max 1 µM) and write its reported combination Emax.
0.254

---

System: SF539 (Glioblastoma)
TEST PROTOCOL: Bliss excess, mean over the matrix (fraction); higher = more synergy
Please respond with reported Bliss excess for every item in the list.
Numbers only.

Read the entry CC1(C)CCC(CN2CCN(c3ccc(C(=O)NS(=O)(=O)c4ccc(NCC5CCOCC5)c([N+](=O)[O-])c4)c(Oc4cnc5[nH]ccc5c4)c3)CC2)=C(c2ccc(Cl)cc2)C1 [Venetoclax] + COc1cc(Nc2ncc3c(n2)-c2ccc(Cl)cc2C(c2c(F)cccc2OC)=NC3)ccc1C(=O)O [Alisertib] (first compound max 1 µM, 7x7, partner max 10 µM) and write its reported Bliss excess.
0.0396

--- query ---
Read the entry Cc1c2c(nn1C)CSCc1cc(n(C)n1)CSc1cc(c3ccccc3c1)OCCCc1c(C(=O)O)n(C)c3c-2c(Cl)ccc13 [AZD5991] + Cn1cnc2c(F)c(Nc3ccc(Br)cc3Cl)c(C(=O)NOCCO)cc21 [Selumetinib] (first compound max 1 µM, 7x7, partner max 3 µM) and write its reported Bliss excess.
-0.0344

---

Tested on: SU-DHL-10 (B-Cell Non-Hodgkin's Lymphoma)
TEST PROTOCOL: Bliss excess, mean over the matrix (fraction); higher = more synergy
ASSAY METRIC: Bliss excess
Answers are plain numbers.

Read the entry CN(CCO)CC[C@H](CSc1ccccc1)Nc1ccc(S(=O)(=O)NC(=O)c2ccc(N3CCC([C@@H](O)c4ccccc4-c4ccc(Cl)cc4)CC3)cc2)cc1S(=O)(=O)C(F)(F)F [AZD4320] + Cn1cnc2c(F)c(Nc3ccc(Br)cc3Cl)c(C(=O)NOCCO)cc21 [Selumetinib] (first compound max 1 µM, 7x7, partner max 3 µM) and write its reported Bliss excess.
0.0912
